Parameter: remaining at 2 h. Scope: all listed entries.
# test.details: Stability in buffer simulated gastric fluid assessed as parent compound remaining in absence of pepsin after 2 hrs
# measurement.parameters: buffer simulated gastric fluid without pepsin

Problem: Report remaining at 2 h for N#Cc1ccc(-c2ccc(O[C@H]3O[C@H](CO)[C@@H](OP(=O)([O-])[O-])[C@H](O)[C@@H]3O)c(Cl)c2)cc1.[Na+].[Na+] please.
Result: > 80%

Problem: Report remaining at 2 h for N#Cc1ccc(-c2ccc(O[C@H]3O[C@H](COP(=O)([O-])[O-])[C@@H](O)[C@H](O)[C@@H]3O)c(Cl)c2)cc1.[Na+].[Na+] please.
Result: > 80%

Please examine the following record next.
Problem: Report remaining at 2 h for N#Cc1ccc(-c2ccc(O[C@H]3O[C@H](CO)[C@@H](O)[C@H](O)[C@@H]3OP(=O)([O-])[O-])c(Cl)c2)cc1.[Na+].[Na+] please.
Result: > 80%

----------
Parameter: half-life at 62.5 µM. Scope: all listed entries.
# test.details: Stability of the compound assessed as half life for human Caco2 cells phosphatase mediated compound hydrolysis at 62.5 uM by LC-MS method
# Format: ADME, cell-based
# measurement.parameters: Caco-2 cells
Give your result in min as a bare value.

Problem: Report half-life at 62.5 µM for N#Cc1ccc(-c2ccc(O[C@H]3O[C@H](CO)[C@@H](O)[C@H](OP(=O)([O-])[O-])[C@@H]3O)c(Cl)c2)cc1.[Na+].[Na+] please.
Result: 12

Problem: Report half-life at 62.5 µM for N#Cc1ccc(-c2ccc(O[C@H]3O[C@H](CO)[C@@H](O)[C@H](O)[C@@H]3OP(=O)([O-])[O-])c(Cl)c2)cc1.[Na+].[Na+] please.
Result: 13

Problem: Report half-life at 62.5 µM for N.N.O=[N+]([O-])c1ccc2c(c1)CCN2c1ccc(O[C@H]2O[C@H](COCOP(=O)(O)O)[C@@H](O)[C@H](O)[C@@H]2O)cc1 please.
Result: 11

Problem: Report half-life at 62.5 µM for N.N.O=P(O)(O)O[C@@H]1[C@H](O)[C@@H](Oc2ccc(-c3ccccc3)cc2)O[C@H](CO)[C@H]1O please.
Result: 13

Further cases:
Problem: Report half-life at 62.5 µM for N#Cc1ccc(-c2ccc(O[C@H]3O[C@H](CO)[C@@H](OP(=O)([O-])[O-])[C@H](O)[C@@H]3O)c(Cl)c2)cc1.[Na+].[Na+] please.
Result: 43

Problem: Report half-life at 62.5 µM for N#Cc1ccc(-c2ccc(O[C@H]3O[C@H](COP(=O)([O-])[O-])[C@@H](O)[C@H](O)[C@@H]3O)c(Cl)c2)cc1.[Na+].[Na+] please.
Result: 48

Problem: Report half-life at 62.5 µM for N.N.O=P(O)(O)O[C@@H]1[C@@H](Oc2ccc(-c3ccccc3)cc2)O[C@H](CO)[C@@H](O)[C@@H]1O please.
Result: 12
